Data provenance: patent EP0350948B1

Test system: nitrosoamine-induced pancreatic cancer
Experiment: laser irradiation to the extirpated organ (excited fluorescent spectrum, N2-PLS measurement), tumor to tissue ratio
Assay type: in vivo, Golden hamsters
Conditions: i.v. 25 mg/kg bodyweight, organs extirpated at 24 hours after administration
property_measured: tumor/tissue cancer/ liver
// keep it numeric: no unit symbol after the value

CC(C)=CCC/C(C)=C/COC(C)C1=C(C)C2=Cc3c(C(C)OC/C=C(\C)CCC=C(C)C)c(C)c4[n]3[Ga][n]3c(c(C)c(CCC(=O)NC(CC(=O)O)C(=O)O)c3=CC3=NC(=C4)C(C)=C3CCC(=O)NC(CC(=O)O)C(=O)O)=CC1=N2 (centres unmarked) [(17) C10(Gera)-Ga-DP-diAsp]	3.33

q: I have this compound here, CCCCCCCCCOC(C)C1=C(C)c2cc3[nH]c(cc4nc(cc5[nH]c(cc1n2)c(C)c5C(C)OCCCCCCCCC)C(C)=C4CCC(=O)NC(CC(=O)O)C(=O)O)c(CCC(=O)NC(CC(=O)O)C(=O)O)c3C.[Ga] (centres unmarked) [(15) C9-Ga-DP-diAsp] , and I need its recorded tumor/tissue cancer/ liver.
a: 2.07
